- study.target: ERα (Homo sapiens, UniProt P03372)
- Sequence (P03372 whole entry): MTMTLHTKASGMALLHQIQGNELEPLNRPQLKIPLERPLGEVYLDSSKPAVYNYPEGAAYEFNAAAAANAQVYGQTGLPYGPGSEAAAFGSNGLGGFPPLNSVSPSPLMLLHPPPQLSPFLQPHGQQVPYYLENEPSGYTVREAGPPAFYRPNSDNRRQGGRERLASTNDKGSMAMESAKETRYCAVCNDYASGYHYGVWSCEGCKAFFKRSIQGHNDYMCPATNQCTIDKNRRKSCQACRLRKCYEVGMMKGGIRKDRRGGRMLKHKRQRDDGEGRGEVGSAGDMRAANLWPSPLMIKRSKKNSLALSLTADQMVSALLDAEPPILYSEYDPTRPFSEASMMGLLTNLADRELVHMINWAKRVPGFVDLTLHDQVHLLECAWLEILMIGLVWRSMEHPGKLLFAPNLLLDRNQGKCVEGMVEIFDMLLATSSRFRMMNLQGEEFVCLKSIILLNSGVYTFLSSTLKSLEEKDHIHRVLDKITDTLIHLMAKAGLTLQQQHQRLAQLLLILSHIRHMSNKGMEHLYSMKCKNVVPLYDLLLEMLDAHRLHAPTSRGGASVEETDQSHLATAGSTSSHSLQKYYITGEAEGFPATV
- method.summary: Degradation of ERα in T-47D cells (immunoblotting, 4 h)
- Format: cell-based
- Design: host or cells: T-47D
- test.parameters: 10nM compound
Recorded Degradation rate (%) of ERα in T-47D cells for the following compounds
quantity.kind: Degradation rate (%) of ERα in T-47D cells

- compound: "C[C@@H]1CN(C(=O)C2CCN(c3cc(F)c(C4c5ccc6[nH]ncc6c5C[C@@H](C)N4CC(F)F)c(F)c3)CC2)CCC1N1CCC2(CC1)COc1c2ccc2c1CN(C1CCC(=O)NC1=O)C2=O (some centres unmarked)"
  unit.of.measure: "%"
  assay.value: 68
- compound: "O=C1CCC(N2C(=O)c3cc4c(cc3C2=O)C2(CCN(C3CCC5(CC3)CN(c3ccc(C6c7ccc(O)cc7CCC6c6ccccc6)cc3)C5)CC2)CO4)C(=O)N1 (centres unmarked)"
  unit.of.measure: "%"
  assay.value: 36
- compound: "O=C1CCC(N2Cc3cc4c(cc3C2=O)OC2(CC4)CN(C3CCC4(CC3)CN(c3ccc([C@@H]5c6ccc(O)cc6CC[C@@H]5c5ccccc5)cc3)C4)C2)C(=O)N1 (some centres unmarked)"
  unit.of.measure: "%"
  assay.value: 45
- compound: "O=C1CCC(N2Cc3c(ccc4c3OC3(CC4)CCN(C4CCC5(CC4)CCN(c4ccc([C@@H]6c7ccc(O)cc7CC[C@@H]6c6ccccc6)cc4)CC5)CC3)C2=O)C(=O)N1 (some centres unmarked)"
  unit.of.measure: "%"
  assay.value: 41
- compound: "O=C1CCC(N2Cc3c(ccc4c3OCC43CCN(C4CC5(C4)CC4(CCN(c6ccc([C@@H]7c8ccc(O)cc8CC[C@@H]7c7ccccc7)cc6)CC4)C5)CC3)C2=O)C(=O)N1 (some centres unmarked)"
  unit.of.measure: "%"
  assay.value: 71
- compound: "O=C1CCC(N2Cc3cc4c(cc3C2=O)OC2(CC4)CN(C3CC4(C3)CC3(CCN(c5ccc([C@@H]6c7ccc(O)cc7CC[C@@H]6c6ccccc6)cc5)CC3)C4)C2)C(=O)N1 (some centres unmarked)"
  unit.of.measure: "%"
  assay.value: 48
- compound: "O=C1CCC(N2Cc3c(ccc4c3OCC43CCN(C4CCN(S(=O)(=O)C5CCN(c6ccc([C@@H]7c8ccc(O)cc8CC[C@@H]7c7ccccc7)cc6)CC5)CC4)CC3)C2=O)C(=O)N1 (some centres unmarked)"
  unit.of.measure: "%"
  assay.value: 65
- compound: "C[C@H]1C[C@@H](N2CCC3(CC2)COc2c3ccc3c2CN(C2CCC(=O)NC2=O)C3=O)CCN1C(=O)C1CCN(c2ccc([C@@H]3c4ccc(O)cc4CC[C@@H]3c3ccccc3)cc2)CC1 (some centres unmarked)"
  unit.of.measure: "%"
  assay.value: 80
- compound: "O=C1CCC(N2Cc3c(ccc4c3OCC43CCN(C(=O)c4ccc(CN5CCN(c6ccc([C@@H]7c8ccc(O)cc8CC[C@@H]7c7ccccc7)cc6)CC5)cc4)CC3)C2=O)C(=O)N1 (some centres unmarked)"
  unit.of.measure: "%"
  assay.value: 66
- compound: "CN(C1CCN(c2ccc([C@@H]3c4ccc(O)cc4CC[C@@H]3c3ccccc3)cc2)CC1)[C@H]1CC[C@H](C(=O)N2CCC3(CC2)COc2c3ccc3c2CN(C2CCC(=O)NC2=O)C3=O)CC1 (some centres unmarked)"
  unit.of.measure: "%"
  assay.value: 42
- compound: "O=C1CCC(N2Cc3c(ccc4c3OC3(CC4)CCN(C4CCN(C5CN(c6ccc([C@@H]7c8ccc(O)cc8CC[C@@H]7c7ccccc7)cc6)C5)CC4)CC3)C2=O)C(=O)N1 (some centres unmarked)"
  unit.of.measure: "%"
  assay.value: -1
